Data origin, for the record: the Immune Epitope Database (IEDB)

biological target: HLA-A*26:03; assay: IEDB peptide-MHC binding, purified MHC/direct/fluorescence; filed as Kd, often an IC50 or EC50 that approximates it; bounds were set here for any values at or beyond the usual limits of such assays; conditions: source organism: Fowlpox virus
Quantity: Kd (nM)
Could you give me the number in nM? Just the number is fine.

Q: # get_value(readout='Kd', item= HVFVCGNNM )
Result: 76

---

target: HLA-B*57:01; assay: IEDB peptide-MHC binding, purified MHC/direct/fluorescence; filed as Kd, often an IC50 or EC50 that approximates it; bounds were set here for any values at or beyond the usual limits of such assays; conditions: source organism: Yellow fever virus 1899/81
Quantity: Kd (nM)
Could you give me the number in nM? Just the number is fine.

Q: # get_value(readout='Kd', item= KSAHGSPTF )
Result: 1260

---

molecular target: HLA-B*40:01; experiment: IEDB peptide-MHC binding, purified MHC/competitive/fluorescence; filed as Kd, often an IC50 or EC50 that approximates it; bounds were set here for any values at or beyond the usual limits of such assays; settings: source organism: Escherichia coli B171
Quantity: Kd (nM)
Could you give me the number in nM? Just the number is fine.

Q: # get_value(readout='Kd', item= AELRLVHEL )
Result: 6.9

---

biological target: HLA-A*31:01; test: IEDB peptide-MHC binding, purified MHC/competitive/radioactivity; filed as Kd, often an IC50 or EC50 that approximates it; bounds were set here for any values at or beyond the usual limits of such assays; settings: source organism: Vaccinia virus WR
pKd: −log10 of the molar value.
Please mark fulfilled if the recorded pKd is equal to or greater than 6, and not fulfilled if it falls below.

Study these solved cases before continuing.
DLIVTFRERY fulfilled
IFPGDKTSY not fulfilled
QTTVNTLSER fulfilled
VTISKDNLER fulfilled
DFESVTNSVY not fulfilled

Q: Could you verify whether the entry SAFNDDGIY shows pKd of no less than 6?
Result: not fulfilled

Q: Could you verify whether the entry TVKTNLYMK shows pKd of no less than 6?
Result: fulfilled

Q: Could you verify whether the entry LFIDRGSIK shows pKd of no less than 6?
Result: not fulfilled

Q: Could you verify whether the entry LLLPSTDVNK shows pKd of no less than 6?
Result: not fulfilled

---

molecular target: HLA-A*24:03; assay: IEDB peptide-MHC binding, purified MHC/direct/fluorescence; filed as Kd, often an IC50 or EC50 that approximates it; bounds were set here for any values at or beyond the usual limits of such assays; conditions: source organism: West Nile virus
Quantity: Kd

Q: # get_value(readout='Kd', item= TYGVCSKAF )
Result: 24.5 nM

---

target: HLA-A*11:01; test: IEDB peptide-MHC binding, purified MHC/competitive/radioactivity; filed as Kd, often an IC50 or EC50 that approximates it; bounds were set here for any values at or beyond the usual limits of such assays; details: source organism: Lassa virus Josiah
pKd: −log10 of the molar value.
Quantity: pKd

Q: # get_value(readout='pKd', item= SCPKPHRLNH )
Result: ≤ 4.16

---

target: HLA-B*39:01; experiment: IEDB peptide-MHC binding, purified MHC/competitive/fluorescence; filed as Kd, often an IC50 or EC50 that approximates it; bounds were set here for any values at or beyond the usual limits of such assays; details: source organism: Homo sapiens
Quantity: Kd

Q: # get_value(readout='Kd', item= VTDTALAYF )
Result: ≥ 20 µM
